Molecular target: T1, LNX2_3, Q8N448
T1 sequence (Q8N448 463-564, limits assumed, looked up): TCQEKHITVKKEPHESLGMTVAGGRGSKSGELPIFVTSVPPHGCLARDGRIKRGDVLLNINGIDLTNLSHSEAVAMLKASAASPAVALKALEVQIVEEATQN
Assay: holdup assay
Design: key: below the threshold = too weak to quantify, mostly under pKd 3.1 to 4
Settings: plain residues with an end cap or a label only (N-terminal biotin on a linker: ado-ado)
Property label: pKd

| Binder | Property label | Observed result |
| --- | --- | --- |
| PSHPRLQTHV [KIRREL2, Q6UWL6] | pKd | below the threshold |
| NVYGIESVKI [GRIA2, P42262] | pKd | below the threshold |
| NTLNRKTTPV [CACNG8, Q8WXS5] | pKd | below the threshold |
| EPQYQPGENL [SRC, P12931] | pKd | below the threshold |
| LKDDELKTKL [SLCO1A2, P46721] | pKd | below the threshold |

Report measured pKd; entry is PYPTADHMLA [JUP, P14923] below the threshold

Given the binder EDLEDEWEVI [TECPR2, O15040] , write its reported pKd. below the threshold

Supply pKd value. Item: DFLSTFHIRI [CIB2, O75838] below the threshold
